Entry source: PubChem BioAssay (NCATS)

Measurement description: Primary qHTS for inhibitors of nuclear receptor binding SET domain protein 2 (NSD2) in an isogenic RCH-ACV NSD2 p.E1099K mutant (9B) (AID 1645876); also: nearly all actives have a fitted effect of over 70% in size
Test parameters: RCH-ACV (leukaemia line) NSD2 E1099K (9B) viability, CellTiter-Glo, 72 h; series mostly up to 44.9 µM
Inconclusive results are not listed. The source made the active and inactive calls. Calls follow the shape of the dose curve; as a rule, active = well fitted inhibition curve with a large enough effect; inconclusive = small, poorly fitted or top-dose-only effect; inactive = flat fitted curve, though single readings scatter.
Choose the fitting class; nothing outside yes for active, no for inactive is accepted.

Molecule	Class assignment
O=C(O)CCc1nc(-c2ccccc2)c(-c2ccccc2)o1	no

**Q:** Any idea what this test logged for Cc1ccc(C(=O)Nc2cccc(C(F)(F)F)c2)cc1Nc1nc(-c2cccnc2)nc2c1cnn2C ?
**A:** no

**Q:** Any idea what this test logged for C=C1C(=O)[C@@]23C(CC[C@@H]1[C@H]2O)[C@@]12CO[C@]3(O)[C@@H](O)[C@@H]1C(C)(C)CC[C@@H]2O (stereo partly drawn) ?
**A:** yes
